# protocolSummary: inhibitors of E-selectin induction by TNFa, primary screen, imaging, HUVEC, immunofluorescence, MLSMR starter and 10KST1 sets (AID 487);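 further: 100% = median nuclei count of all wells on the same plate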
# measurementContext: HUVEC TNFalpha-induced E-selectin immunofluorescence imaging, at 2 µM; measured here: cell number, toxicity
Hi there, I'd appreciate the recorded nuclei count for every entry that follows.

Sample answers from the record:
                                   compound  measurement
0  N#CC1=C(SCC(=O)c2ccccc2)NC2=C(C(=O)CCC2)C1c1ccco1 (stereo not drawn)        91.7%
1       COc1cccc(-c2nn3c(-c4ccco4)nnc3s2)c1         155%
2  CC(C)(C)NC(=O)CSc1nsc(SCC(=O)NC(C)(C)C)c1C#N         178%
3  COc1ccc(/C(O)=C2/C(=O)C(=O)N(CCN3CCOCC3)C2c2ccccn2)cc1 (stereo not drawn)        75.8%
4                          CC(=O)Nc1ccccc1O         121%
5  O=C(c1cccs1)N1CCC(N2CCN(c3ccccc3)CC2)CC1         119%
6           O=C(O)c1cc(-c2ccccc2)nc2ccccc12         121%
7  CCC1(C)Cc2c(sc3c2c(=O)n(C)c2nnc(SCc4ccc5c(c4)OCO5)n32)CO1 (stereo not drawn)        98.6%

Provide the reported nuclei count of each entry below, same order.
1. Cc1cc(NC(=O)C2=C(O)c3ccccc3S(=O)(=O)N2C)no1
2. COc1ccc2nc(S(=O)Cc3ncc(C)c(OC)c3C)[nH]c2c1 (stereo not drawn)

1: 120%; 2: 108%

====

Hi there, I'd appreciate the recorded cell count for every entry that follows.
# protocolSummary: inhibitors of TNFa-induced NFkB p65 translocation, primary screen, imaging, HUVEC, MLSMR starter and 10KST1 sets (AID 438);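 further: compound added about 3h40 before a 20 min TNFalpha stimulation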
# measurementContext: HUVEC TNFa-induced p65 nuclear translocation; measured here: nuclei count (cytotoxicity indicator), at 2.08 µM
Give bare numbers.

Sample answers from the record:
>>> print(df.to_string())
                                   molecule  measurement
0        Cc1cc(COc2ccccc2OCCN2CCN(C)CC2)no1          551
1   N#Cc1c(N)nc(SCc2ccccn2)c(C#N)c1-c1cccs1          526
2  Cc1cc(=O)oc2c(CN3CCN(C)CC3)c(O)c(Cl)cc12          494
3  Cc1ccc2[nH]c3c(N4CCN(Cc5ccc6c(c5)OCO6)CC4)ncnc3c2c1          390
4  CCN(CC)CCCN1C(=O)C(=O)/C(=C(/O)c2ccc(C)cc2)C1c1ccccn1 (stereo not given)          546
5       Cc1cccc(N(C)C(=S)Oc2ccc3ccccc3c2)c1          604
6                      CNC(=O)c1cc2ccccc2o1          323
7  CCOC(=O)C1(c2nc(N)cs2)COC(=O)C1 (stereo not given)          529
8  CO[C@@]1(NC(=O)CSCC#N)C(=O)N2C(C(=O)O)=C(CSc3nnnn3C)CS[C@@H]21          632

Notebook: C[C@H]1C[C@@H]2[C@H]([C@@H](O)C[C@@]3(C)[C@H]2CC[C@]3(O)C(=O)CO)[C@@]2(C)C=CC(=O)C=C12 , cell count read as 665
